biological target: BIR3 domain of human cIAP-1 (residues 267-363) (Homo sapiens (Human), UniProt Q13490); test: cIAP-1 in vitro competitive displacement binding assay (fluorescence polarization; Probe A AVPIK(5&6FAM)-amide or Probe B AbuRPFK(5&6FAM)-amide); settings: 3 h, read-out: IC50 or PI cIAP1: PI
Counter-ions that a name gives are not always drawn.
QUANTITY NAME: inhibition at […]
Answer with the figure and its unit, nothing else.

Solved cases below.
>>> print(df.to_string())
                                   compound                          target_or_system  observed_value
0  C[C@@H]1CN(CC(=O)N2CC(C)(C)c3ncc(Cc4ccccc4F)cc32)[C@@H](CN2CCOC[C@H]2C)CN1 [Example 261, dihydrochloride]  BIR3 domain of human cIAP-1 (residues 267-363) (Homo sapiens (Human), UniProt Q13490)             96%
1  C[C@@H]1CN(CC(=O)N2CC(C)(C)c3cnc(Cc4ccc(F)cc4F)cc32)[C@@H](CN2CCC(F)(F)C2)CN1 [Example 208, dihydrochloride]  BIR3 domain of human cIAP-1 (residues 267-363) (Homo sapiens (Human), UniProt Q13490)             99%
2  C[C@@H]1CN(CC(=O)N2CC(C)(C)c3cnc(C(F)(F)c4ccccc4)cc32)[C@@H](C(=O)N2CCOCC2)CN1 [Example 178, dihydrochloride]  BIR3 domain of human cIAP-1 (residues 267-363) (Homo sapiens (Human), UniProt Q13490)             60%

Could I get inhibition at […] for every one of these entries?
1. C[C@@H]1CN(CC(=O)N2CC(C)(C)c3ncc(Cc4ccc(F)cc4)cc32)[C@@H](CN2C[C@@H](C)O[C@@H](C)C2)CN1 [Example 243, dihydrochloride]
2. C[C@@H]1CN(CC(=O)N2CC(C)(C)c3ncc(Cc4ccc(F)cc4F)cc32)[C@@H](CN2CCOC[C@H]2C)CN1 [Example 264, dihydrochloride]

1: 100%; 2: 98%

Looking for the measured inhibition at […] of C[C@@H]1CN(CC(=O)N2CC(C)(C)c3cnc(Cc4ccc(F)cc4F)cc32)[C@@H](CN2CCOC2=O)CN1 [Example 209, dihydrochloride] , can you help?
90%

---

Give measured pIC50 for each item. Keep answers brief.
biological target: BIR3 domain of human cIAP-1 (residues 267-363) (Homo sapiens (Human), UniProt Q13490); experiment: cIAP-1 in vitro competitive displacement binding assay (fluorescence polarization; Probe A AVPIK(5&6FAM)-amide or Probe B AbuRPFK(5&6FAM)-amide); settings: Probe A AVPIK(5&6FAM)-amide; read-out: IC50 or PI cIAP1: IC50
Where a name gives a salt, the structure may show the parent alone.
One number for each entry, as −log10 of the molar value.

>>> print(df.to_string())
                                   compound  quantity_name  observed_value
0  C[C@@H]1CN(CC(=O)N2CC(C)(C)c3ccccc32)CCN1 [Example 21]          pIC50            4.57
1  C[C@@H]1CN(CC(=O)N2CCc3ccc(C(F)(F)F)cc32)CCN1 [Example 22]          pIC50            4.44
2  Cc1ccc2c(c1)N(C(=O)CN1CCN[C@H](C)C1)CC2 [Example 6]          pIC50            4.02
3  COc1ccc2c(c1)N(C(=O)CN1CCN[C@H](C)C1)CC2 [Example 5]          pIC50            4.11
4  C[C@@H]1CN(CC(=O)N2CCc3ccc(Cc4ccccc4)cc32)CCN1 [Example 29, hydrochloride salt]          pIC50            5.85

Item under review: C[C@@H]1CN(CC(=O)N2CCc3cnc(Cc4ccccc4)cc32)CCN1 [Example 35, hydrochloride salt] . Reported pIC50?
6.02

Where these numbers come from: patent US9018214B2
